In this section we review reported TGI values for a set of compounds.
tested on: LXFL 529 NSCLC; test: NCI tumour cell line growth inhibition, 48 h

{"columns": ["Compound", "Unit of measure", "Result modifier", "TGI"],
 "data": [
  ["O=C(N/C(=C\\c1ccc(Cl)cc1)c1nc2ccccc2[nH]1)c1ccccc1", "µM", "=", 38.6],
  ["Cc1cc(NCCCCCCCCNc2cc(C)nc3cc(N)ccc23)c2ccc(N)cc2n1", "µM", "=", 45.2],
  ["CCN(CC)C(=O)Cc1c(C(=O)N(CC)CC)c(=O)nc2sccn12", "µM", ">", 100],
  ["COC(=O)C(C(=O)C(=O)Nc1c(C)cccc1C)c1cnc2ccccc2n1 (stereo not given)", "µM", ">", 100],
  ["N#CCCN(c1ccc(C=Nc2ccccc2)cc1)S(=O)(=O)c1ccccc1", "µM", ">", 100]
]}

----------
system: HOP-92 NSCLC; test: NCI tumour cell line growth inhibition, 48 h
In this section we review reported TGI values for a set of compounds.

{"columns": ["Smiles record", "Unit of measure", "Result modifier", "TGI"],
 "data": [
  ["CC(C)OP(=O)(OC(C)C)/C(Cl)=N/Nc1ccc([N+](=O)[O-])cc1", "µM", ">", 100],
  ["N.N.N.N.N.[Co+3].[I-].[N-]=[N+]=[N-]", "µM", ">", 100],
  ["Cc1cc(C)n(CC(Cn2nc(C)cc2C)=C(/C(Cl)=C(/Cl)Nc2ccc([N+](=O)[O-])cc2)[N+](=O)[O-])n1", "µM", "=", 8.48],
  ["Cc1cc2nc3c4cc(O)ccc4n(CCN(C)C)c3nc2cc1C", "µM", "=", 2.62],
  ["Cc1cc(S(=O)(=O)Nc2nc3ccccc3o2)c(SCc2ccccc2)cc1Cl", "µM", "=", 20.9]
]}

----------
system: SNB-19 CNS; assay: NCI tumour cell line growth inhibition, 48 h
Observable: TGI

{"columns": ["Molecule", "Result"],
 "data": [
  ["CC(C)=CCC[C@@H](C)/C=C/C=C(\\C)C(=O)CC[C@@H]1CC[N@+]2(C)CCCC[C@H]12", "> 100 µM"],
  ["CCOC(=O)c1c(N)n(-c2ccccc2)c(=O)n(-c2ccccc2)c1=O", "> 100 µM"],
  ["CCSCC1CC(O)(c2ccccc2)CC(c2ccc(F)cc2)O1 (centres undefined)", "9.36 µM"],
  ["O=c1[nH]c(Nc2ccc(Cl)c(C(F)(F)F)c2)nc2nc[nH]c12", "> 100 µM"],
  ["C#C[C@]1(O)CC[C@H]2[C@@H]3CCC4=C/C(=N/OCCN(C)C)CC[C@]4(C)[C@H]3CC[C@@]21C", "> 100 µM"],
  ["CC(=O)OC1CC[C@@]2(C)C(=CC[C@@H]3[C@@H]2CC[C@]2(C)Nc4nn(S(C)(=O)=O)cc4C[C@@H]32)C1 (some centres undefined)", "> 100 µM"],
  ["O=C(Oc1cccc2cccnc12)c1cc2c(cc1Cl)SC(N(c1ccc(F)cc1)S(=O)(=O)c1ccc(Br)s1)=NS2(=O)=O", "> 100 µM"],
  ["Nc1nc2c3nc(Nc4ccccc4)sc3nc(=S)n2c2sc(Nc3ccccc3)nc12", "> 100 µM"],
  ["CCN(CC)c1ccc(/C=N/NC(=O)CSc2nc3ccccc3c(=O)n2CCc2ccc(S(N)(=O)=O)cc2)c(O)c1", "> 100 µM"],
  ["C[N+]1(CCC(=O)c2ccco2)CC2CCC(CC2)C1 (centres undefined)", "> 100 µM"],
  ["COc1ccccc1NC(=S)N/N=C/c1c(C)n(C)n(-c2ccccc2)c1=O", "> 100 µM"],
  ["CC(C)(Br)C(=O)N1CCN(C(c2ccccc2)c2ccccc2)CC1", "> 100 µM"],
  ["O=c1[nH]c2ccccc2c2ccccc12", "> 100 µM"],
  ["CC(C)(C)c1ccc(S(=O)(=O)Oc2ccc3c4c(c(=O)oc3c2)CCCCC4)cc1", "52.1 µM"],
  ["Cn1c2c(c3ccccc31)CCN(CCCCN1CCCCC1)C2=O", "> 100 µM"],
  ["C/C(=C1/N=C(c2cc([N+](=O)[O-])ccc2Cl)N(c2cccc(C)c2)C1=O)c1cc2ccccc2oc1=O", "> 100 µM"],
  ["O=C1C[C@H](c2ccccc2)O[C@@H](c2ccccc2)C1", "> 100 µM"],
  ["COc1ccc(C2=N[C@@H](Cc3ccccc3)C(=O)Nc3ccsc32)cc1", "58.3 µM"],
  ["OC(c1ccc(F)cc1)C(F)(F)c1nc2ccccc2o1 (centres undefined)", "> 100 µM"],
  ["O=C1CSCc2sccc21", "> 100 µM"],
  ["c1ccc([P+](CCSCCSCC[P+](c2ccccc2)(c2ccccc2)c2ccccc2)(c2ccccc2)c2ccccc2)cc1", "> 100 µM"],
  ["COC(=O)C1CCC(=O)N1CN(C(C)=O)c1ccccc1Cl (centres undefined)", "> 100 µM"],
  ["CN1C(=O)CCC1(O)C1C=CC=CC1 (centres undefined)", "> 100 µM"],
  ["O=C(O)CN1C=C(C(=O)c2cc3ccccc3n2S(=O)(=O)c2ccccc2)CCC1", "> 100 µM"],
  ["O=c1[nH]c(Cc2ccccc2)nc2c1sc1nc3ccccc3n12", "> 100 µM"],
  ["CCOC(=O)c1c[nH]c2c(Sc3ccccc3)nccc2c1=O", "> 100 µM"],
  ["COc1ccc(C/C(=N/O)C(=O)NCCc2cc(Br)c(OCCCN(C)C)c(Br)c2)cc1Br", "32.6 µM"],
  ["Cc1cn([C@@H]2C[C@@H]2CO)c(=O)[nH]c1=O", "> 100 µM"],
  ["Cc1cc2nc3c4cc(O)ccc4n(CCN(C)C)c3nc2cc1C", "12.3 µM"],
  ["CN(CCN1C(=O)c2cc([N+](=O)[O-])cc3cc([N+](=O)[O-])cc(c23)C1=O)CCN1C(=O)c2cc([N+](=O)[O-])cc3cc([N+](=O)[O-])cc(c23)C1=O", "> 100 µM"],
  ["C=C1C(=O)O[C@H]2C/C(C)=C/CC[C@@]3(C)O[C@](C)(CC[C@@H]3I)[C@@H](I)C[C@@H]12", "13.5 µM"],
  ["COc1cc(NS(C)(=O)=O)ccc1Nc1cc[nH]c2ccc3nccc3c12", "29.9 µM"],
  ["C=CCN(c1cc(OCc2ccccc2)c2[nH]cc(C)c2c1)S(C)(=O)=O", "> 100 µM"],
  ["O=C1CSC(/C=C/c2ccccc2)N1c1nc2cc3sc(N4C(=O)CSC4/C=C/c4ccccc4)nc3cc2s1 (centres undefined)", "> 100 µM"],
  ["COCC1CCCN1c1ccc(C=N/C(C#N)=C(\\N)C#N)cc1 (centres undefined)", "> 100 µM"],
  ["CCN1C(=S)N(c2ccccc2)C2NC(=S)N(/N=C/C=C/c3ccccc3OC)C21 (centres undefined)", "> 100 µM"],
  ["OCc1cn(C(c2ccccc2)(c2ccccc2)c2ccccc2)cn1", "> 100 µM"],
  ["CC(C)(C)OC(=O)NC(CCCCNC(=O)OCc1ccccc1)C(=O)NCCNc1ccc(NCCNC(=O)C(CCCCNC(=O)OCc2ccccc2)NC(=O)OC(C)(C)C)c2c1C(=O)c1ccccc1C2=O (centres undefined)", "45.9 µM"],
  ["COc1cc(Nc2nc3cc(N)cc(N)c3nc2-c2ccccc2)cc(OC)c1OC", "> 100 µM"]
]}

Values from PubChem BioAssay (NCI)
